B1: LRRC45 (parent)
chain: DLSAANEKNLLLQNQVDELERKFR

# Variants of: B1
# measurementDescription: protein stability index of a GFP-peptide fusion (GPS, HEK-293T) (PSI 1-6); higher = more stable;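 note: lentivirally expressed fusions sorted by FACS into six bins by GFP to DsRed ratio, PSI derived from sequencing read proportions per bin multiplied by bin number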
# setupConditions: c terminus: a fixed tail appended
Provide the recorded protein stability index for the entries that follow.

Q15K
4.06

Hi team, please reply with protein stability index for each item in this list.
1. E20C
2. V16T
3. Q13L
4. D1C
5. L12K
6. E7T
7. V16S
8. R21K

Response given:
1: 3.73; 2: 3.66; 3: 3.96; 4: 3.73; 5: 3.77; 6: 3.69; 7: 4.32; 8: 3.93

Hi team, please reply with protein stability index for each item in this list.
1. L2N
2. L12A

Response given:
1: 4.64; 2: 4.37

Hi team, please reply with protein stability index for each item in this list.
1. N14C
2. K8H
3. N6H
4. R24L
5. E7D

Response given:
1: 4; 2: 4.06; 3: 4.27; 4: 3.78; 5: 4.73

Hi team, please reply with protein stability index for each item in this list.
1. V16C
2. N6K
3. F23L
4. Q13A
5. D17I
6. K22F
7. E20Q
8. D1H

Response given:
1. 3.88
2. 4.51
3. 4.33
4. 4.25
5. 3.01
6. 3
7. 3.47
8. 4.42
